Data provenance: ChEMBL document CHEMBL1156613

Below is a list of entries, each paired with its recorded log10(IC50) value.
molecular target: Mitogen-activated protein kinase; ERK1/ERK2 (Homo sapiens, UniProt P27361+P28482); assay: Inhibition of ERK1/2 phosphorylation in human MALME3M cells; format: cell-based
Quantity Name: log10(IC50) (log10 of the value in nM)

> print(dat)
                                    compound  obs.value
 1  Cn1cc(-c2ccc3c(c2)CC/C3=N\O)c(-c2cnco2)n1       3.38
 2  CN(C)CCn1cc(-c2ccc3c(c2)CC/C3=N\O)c(-c2ccncc2)n1       2.78
 3  O/N=C1\CCc2cc(-c3cn([C@H]4CCC[C@H]4O)nc3-c3ccncc3)ccc21 (relative stereo)       2.39
 4  O/N=C1\CCc2cc(-c3cn([C@H]4CCC[C@@H]4O)nc3-c3ccncc3)ccc21 (relative stereo)       1.57
 5  Cn1cc(-c2ccc3c(c2)CC/C3=N\O)c(-c2ccnc(N)c2)n1       3.00
 6  CCn1cc(-c2ccc3c(c2)CC/C3=N\O)c(-c2ccncc2)n1       1.26
 7  OCC(O)Cn1cc(-c2ccc3c(c2)CC/C3=N\O)c(-c2ccncc2)n1 (stereo unspecified)       1.34
 8  OCCCn1cc(-c2ccc3c(c2)CC/C3=N\O)c(-c2ccncc2)n1       1.41
 9  CN1CCC(n2cc(-c3ccc4c(c3)CC/C4=N\O)c(-c3ccncc3)n2)CC1       1.00
10  Cn1cc(-c2ccc3c(c2)CC/C3=N\O)c(-c2ccnc(O)c2)n1       2.90
11  NCCn1cc(-c2ccc3c(c2)CC/C3=N\O)c(-c2ccncc2)n1       2.08
12  Cn1cc(-c2ccc3c(c2)Cc2c[nH]nc2-3)c(-c2ccncc2)n1       3.28
13  O/N=C1\CCc2cc(-c3cn(CC4CCCNC4)nc3-c3ccncc3)ccc21 (stereo unspecified)       2.19
14  Cn1cc(-c2ccc3c(c2)CN/C3=N/O)c(-c2ccncc2)n1       1.75
15  Cc1c[nH]nc1-c1ccc(-c2cn(C)nc2-c2ccncc2)cc1       4.26
16  Cn1ncc(-c2ccc3c(c2)CC/C3=N\O)c1-c1ccncc1       2.22
17  O/N=C1\CCc2cc(-c3cn(C4CCCC4)nc3-c3ccncc3)ccc21       1.76
18  O/N=C1\CCc2cc(-c3cn(C4CCNCC4)nc3-c3ccncc3)ccc21       0.95
19  CNC1CCCC(n2cc(-c3ccc4c(c3)CC/C4=N\O)c(-c3ccncc3)n2)C1 (stereo unspecified)       1.26
20  Cn1cc(-c2ccc3c(c2)CC/C3=N\O)c(-c2ccncc2)n1       1.52
21  O/N=C1\CCc2cc(-c3cn(C4CCOCC4)nc3-c3ccncc3)ccc21       1.68
